# Tested on: UACC-62 melanoma
# measurement-protocol: NCI-60 one-dose screen, 48 h (100 = growth as untreated, 0 = no growth, -100 = all killed)
# protocol-conditions: 10 µM unless noted
The panel holds about 83,000 compounds, 20% with a hit somewhere; the sample as a whole holds those more often.
Overview of recorded growth for various compounds
Supply the numeric figure in %, leaving out any unit text.

Worked cases, answers included:
COc1ccc(C(=O)/C=C/c2ccccc2Cl)cc1S(N)(=O)=O: 92.9
COc1ccc(-c2ccnc(SCc3cc4ccccc4[nH]c3=O)n2)cc1OC: 1.83
CCCCSc1nc(NCCc2c[nH]c3ccccc23)c(C#N)c(-c2ccc(OC)cc2)n1: 71.2
CN(C)c1nc(NCCNS(=O)(=O)c2ccc(C(=O)/C=C/c3ccc(Cl)cc3)cc2)nc(Nc2ccc(F)cc2)n1: -56.8
O=C(COc1ccc(NC(=O)Nc2ccccc2)cc1)N=Nc1c(O)[nH]c2ccc([N+](=O)[O-])cc12: 16
CC(C)CCNC(=O)N/C(N)=N/c1nc2ccccc2s1: 59.2
CC(=O)Nc1cccc(Nc2nccc(N[C@@H](C)c3ccccc3)n2)c1: 20.6
Cn1cc(NC(=O)c2cc(NC(=O)c3ccc(/C=C/c4ccccc4)cc3)cn2C)cc1C(=O)NCCCN1CCOCC1: -89

Incoming: // growth lookup, key: CCCn1cc(-c2nc(Nc3ccc(C(=O)NCCCCNc4cccc5c4C(=O)N(C4CCC(=O)NC4=O)C5=O)cc3)nc3[nH]ccc23)cn1 (centres undefined)
Outgoing: 74.6

----------
# Test system: SW-620 colon
# measurement-protocol: NCI-60 one-dose screen, 48 h (100 = growth as untreated, 0 = no growth, -100 = all killed)
# protocol-conditions: 10 µM unless noted
# Method: Growth inhibition of the SW-620 human tumor cell line is measured as a screen for anti-cancer activity. Cells are grown in 96 well plates and exposed to the test compound for 48 hours. Compounds are tested at a single concentration, which is 10^-5 M for most compounds. The reported endpoint is percent growth (GI% or GIPRCNT), where numbers from 0 - 100% represent growth inhibition, and numbers from -100% - 0 represent cell death. For example, a value of 40 represents 60% growth inhibition. […]
The panel holds about 83,000 compounds, 20% with a hit somewhere; the sample as a whole holds those more often.
Define the label as yes (1) when growth is strictly less than 80% and as no (0) in all remaining cases.

Please review the following examples before continuing.
O=C(Nc1ccc(C(F)(F)F)cc1)Nc1ccc2oc(=O)ccc2c1: yes (1)
O=C(CN1C(=O)/C(=C/c2ccccc2Cl)SC1=S)N1CCOCC1: yes (1)
COc1ccc2[nH]cc(-c3cc(N)n4nc(-c5cn(C)c6ccccc56)cc4n3)c2c1: yes (1)
Cc1ccc(NCC(=O)Cn2cc(COc3ccc(C=Nc4cnc5ccccc5c4)cc3)nn2)cc1: no (0)
C=C1CCC2C3(C)COC(c4ccccc4)OC3CCC2(C)C1CC(NCc1ccccc1)C1=CCOC1=O (stereo not given): no (0)

Incoming: I wonder whether O=C(/C=C/Nc1ccc(Cl)cc1)c1ccc2c(c1)Nc1ccccc1S2 has growth below 80%. Can you tell?
Outgoing: yes (1)

Incoming: Thanks! And COc1ccc(C(=O)/C=C/c2cccnc2)cc1S(N)(=O)=O ?
Outgoing: yes (1)

Incoming: Thanks! And O=C(Cn1c(/C=C/c2ccccc2)nc2ccccc2c1=O)Nc1ccccc1 ?
Outgoing: yes (1)

Incoming: Thanks! And O=C(Cn1c2c(sc1=O)[C@H]1[C@@H](O)[C@@H](O)[C@H](O)[C@@H]1CS2)N1CCOCC1 ?
Outgoing: no (0)

----------
# System: UO-31 renal
# measurement-protocol: NCI-60 one-dose screen, 48 h (100 = growth as untreated, 0 = no growth, -100 = all killed)
# protocol-conditions: 10 µM unless noted
Compounds without any hit were thinned out: in the full panel of roughly 83,000, 20% have a hit. Activity calls are given as the source filed them. How the source made its calls: active means growth percent below 10; inactive means the rest.
measured-endpoint: growth

Worked cases, answers included:
C=C1CC[C@@H]2[C@]3(C)COC(c4cn[nH]c4-c4ccc(F)cc4)O[C@@H]3CC[C@@]2(C)[C@@H]1C/C=C1/C(=O)OCC1O (some centres undefined): -80.4% (active)
COc1cccc(/C=C/c2nc3ccccc3c(=O)n2CC(=O)Nc2ccc(Cl)cc2)c1: 16% (inactive)

Incoming: // growth lookup, key: CCOC(=O)C1=C(N)N(c2ccccc2)C2=C(C(=O)CC(C)(C)C2)C1c1ccc(N2CCOCC2)cc1 (centres undefined)
Outgoing: 90.3% (inactive)

Incoming: Thanks! And Cc1c(C(=O)NNC(=O)c2ccc(Cl)cc2)nnn1-c1ccc(Br)cc1 ?
Outgoing: 75.9% (inactive)

----------
# System: UACC-257 melanoma
# measurement-protocol: NCI-60 one-dose screen, 48 h (100 = growth as untreated, 0 = no growth, -100 = all killed)
# protocol-conditions: 10 µM unless noted
About 83,000 compounds went through this panel and 20% of them were active in at least one assay; those are over-represented in the sample as a whole.
Define the label as yes (1) when growth is strictly less than 80% and as no (0) in all remaining cases.

Please review the following examples before continuing.
CCN(CC)c1ccnc(CNCCSC(c2ccccc2)(c2ccccc2)c2ccc(OC)cc2)c1: yes (1)
CCOC(=O)c1ccc(Nc2nc(NN)nc(-c3ccc(OC)cc3)c2C#N)cc1: yes (1)
NS(=O)(=O)c1ccc(-n2cc(-c3cccc(NC(=O)c4ccc(Cl)c(C(F)(F)F)c4)c3)nn2)cc1: yes (1)
N/C(=N\c1nc2ccccc2s1)NC(=O)Nc1ccccc1Br: yes (1)
O=C(COc1ccc(NC(=O)Nc2ccccc2)cc1)N=Nc1c(O)[nH]c2ccc([N+](=O)[O-])cc12: yes (1)

Incoming: I wonder whether COc1c(F)ccc(C(=O)Nc2ccc3nc(NC(=O)C4CCCN(S(=O)(=O)c5cccc(Cl)c5)C4)sc3c2)c1F (centres undefined) has growth below 80%. Can you tell?
Outgoing: no (0)

Incoming: Thanks! And CC1CN(c2oc(-c3ccc([N+](=O)[O-])cc3)nc2C#N)CC(C)O1 (centres undefined) ?
Outgoing: no (0)

Incoming: Thanks! And CC1=C(C(=O)c2ccccc2)C(c2ccc(-n3cncn3)cc2)n2c(nc3ccccc32)N1 (centres undefined) ?
Outgoing: no (0)

----------
# Tested on: UO-31 renal
# measurement-protocol: NCI-60 one-dose screen, 48 h
# protocol-conditions: 10 µM unless noted
The panel holds about 83,000 compounds, 20% with a hit somewhere; the sample as a whole holds those more often. Activity calls are given as the source filed them. How the source made its calls: active means growth percent below 10; inactive means the rest.
Form entry, call: pick from 1.0 (active), 0.0 (inactive)

Please review the following examples before continuing.
COc1ccc(C(=O)/C=C/c2cc3c(cc2Br)OCO3)cc1S(N)(=O)=O: 1.0
O=C(NN1C(=O)/C(=C/C=C/c2ccc([N+](=O)[O-])o2)SC1=S)c1cccc(O)c1: 1.0
O=c1[nH]c2ccc(Cl)cc2cc1CSc1nccc(-c2ccc(Cl)cc2)n1: 0.0
COc1cc2nc(SCc3ccccc3)n(-c3ccc(Cl)cc3)c(=O)c2cc1OC: 1.0
COc1cc2c(c(OC)c1OC)C(=O)CC(c1cccc(NC(=O)c3cc(NC(=O)[C@H](C)N)ccc3Cl)c1)O2 (some centres undefined): 0.0

Incoming: Test call, this molecule: COC(=O)/C=C/c1cccc2c1C(=O)NC(C)(c1cc3ccccc3oc1=O)N2 (centres undefined)
Outgoing: 0.0

Incoming: Thanks! And CC1CN(c2oc(-c3ccc([N+](=O)[O-])cc3)nc2C#N)CC(C)O1 (centres undefined) ?
Outgoing: 0.0

Incoming: Thanks! And Cc1ccc(S(=O)(=O)c2nc(S(=O)(=O)c3ccc(C)cc3)c(N3CCC(O)CC3)s2)cc1 ?
Outgoing: 0.0

Incoming: Thanks! And CC(=O)N1CCN(Cc2ccc3c(NNC(=O)c4cnccn4)nc4cc(F)ccc4n23)CC1 ?
Outgoing: 0.0

Incoming: Thanks! And Nc1nc(-c2ccccc2)c(N=Nc2ccc([N+](=O)[O-])cc2Cl)s1 ?
Outgoing: 0.0

Incoming: Thanks! And CSc1ccc(C(=O)Nc2ccc3nnn(/C(C#N)=C/c4ccccn4)c3c2)cc1 ?
Outgoing: 1.0

Incoming: Thanks! And COc1ccc(NC(=O)[C@H](CO)NC(=O)OC(C)(C)C)cc1C(=O)Nc1cccc(C2CC(=O)c3c(cc(OC)c(OC)c3OC)O2)c1 (some centres undefined) ?
Outgoing: 0.0

Incoming: Thanks! And COc1cccc(-c2nc(Nc3ccc(S(N)(=O)=O)cc3)c3ccccc3n2)c1 ?
Outgoing: 0.0

Incoming: Thanks! And OCNc1ccc(-n2cnc3cc(-c4ccc(O)cc4)ccc32)cc1C(F)(F)F ?
Outgoing: 0.0

Incoming: Thanks! And CCN(CC)c1ccc(/C=N/Nc2nc(-c3ccc(Br)cc3)cs2)c(O)c1 ?
Outgoing: 0.0

Incoming: Thanks! And COc1ccc(C(=O)/C=C/c2cccnc2)cc1S(N)(=O)=O ?
Outgoing: 0.0

Incoming: Thanks! And Cc1cc(=O)oc2cc(OCCCOc3ccc(/C=C/C(=O)Nc4ccccc4N)cc3)ccc12 ?
Outgoing: 1.0

Incoming: Thanks! And CC(C)c1ccc2c(N)c(C(=O)Nc3ccc(C(F)(F)F)cn3)sc2n1 ?
Outgoing: 0.0

Incoming: Thanks! And C=C1CC[C@@H]2[C@]3(C)COC(c4cn[nH]c4-c4cccc(Br)c4)O[C@@H]3CC[C@@]2(C)[C@@H]1C/C=C1/C(=O)OCC1O (some centres undefined) ?
Outgoing: 1.0
